The origin of these recorded values is ChEMBL document CHEMBL4184118.

Biological target: CRY2/PER2 (Homo sapiens, UniProt O15055+Q49AN0)
Sequence (O15055 whole entry): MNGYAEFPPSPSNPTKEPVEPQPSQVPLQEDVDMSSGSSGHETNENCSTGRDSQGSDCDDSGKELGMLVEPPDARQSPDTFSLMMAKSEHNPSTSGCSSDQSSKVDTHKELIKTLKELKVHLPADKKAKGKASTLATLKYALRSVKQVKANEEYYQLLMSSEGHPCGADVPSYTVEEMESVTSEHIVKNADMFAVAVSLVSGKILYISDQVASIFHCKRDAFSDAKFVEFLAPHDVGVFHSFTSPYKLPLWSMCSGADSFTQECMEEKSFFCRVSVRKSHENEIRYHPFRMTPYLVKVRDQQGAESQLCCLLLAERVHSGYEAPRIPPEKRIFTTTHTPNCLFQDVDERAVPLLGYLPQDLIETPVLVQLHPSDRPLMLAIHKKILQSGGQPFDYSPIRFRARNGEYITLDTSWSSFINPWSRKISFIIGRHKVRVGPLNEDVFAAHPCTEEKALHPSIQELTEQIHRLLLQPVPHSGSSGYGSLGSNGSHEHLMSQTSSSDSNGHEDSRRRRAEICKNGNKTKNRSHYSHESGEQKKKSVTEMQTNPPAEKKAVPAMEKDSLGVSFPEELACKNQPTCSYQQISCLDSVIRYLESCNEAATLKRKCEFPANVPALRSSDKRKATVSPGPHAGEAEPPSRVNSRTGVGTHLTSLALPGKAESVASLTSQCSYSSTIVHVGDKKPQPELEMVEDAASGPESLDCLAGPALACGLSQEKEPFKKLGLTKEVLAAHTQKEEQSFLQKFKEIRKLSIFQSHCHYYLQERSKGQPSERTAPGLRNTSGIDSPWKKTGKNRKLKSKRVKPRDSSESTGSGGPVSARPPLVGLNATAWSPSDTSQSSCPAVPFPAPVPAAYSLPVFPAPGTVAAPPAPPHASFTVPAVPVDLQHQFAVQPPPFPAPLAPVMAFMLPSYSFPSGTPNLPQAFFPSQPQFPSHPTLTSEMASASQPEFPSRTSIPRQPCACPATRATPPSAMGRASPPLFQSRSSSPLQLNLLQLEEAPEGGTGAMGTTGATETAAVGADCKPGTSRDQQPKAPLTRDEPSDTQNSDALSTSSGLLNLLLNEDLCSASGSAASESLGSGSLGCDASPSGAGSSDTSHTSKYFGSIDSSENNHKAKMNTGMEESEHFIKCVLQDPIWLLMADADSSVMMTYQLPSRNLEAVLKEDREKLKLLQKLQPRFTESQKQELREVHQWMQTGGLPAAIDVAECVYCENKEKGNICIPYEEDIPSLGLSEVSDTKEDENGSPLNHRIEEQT
Sequence (Q49AN0 whole entry): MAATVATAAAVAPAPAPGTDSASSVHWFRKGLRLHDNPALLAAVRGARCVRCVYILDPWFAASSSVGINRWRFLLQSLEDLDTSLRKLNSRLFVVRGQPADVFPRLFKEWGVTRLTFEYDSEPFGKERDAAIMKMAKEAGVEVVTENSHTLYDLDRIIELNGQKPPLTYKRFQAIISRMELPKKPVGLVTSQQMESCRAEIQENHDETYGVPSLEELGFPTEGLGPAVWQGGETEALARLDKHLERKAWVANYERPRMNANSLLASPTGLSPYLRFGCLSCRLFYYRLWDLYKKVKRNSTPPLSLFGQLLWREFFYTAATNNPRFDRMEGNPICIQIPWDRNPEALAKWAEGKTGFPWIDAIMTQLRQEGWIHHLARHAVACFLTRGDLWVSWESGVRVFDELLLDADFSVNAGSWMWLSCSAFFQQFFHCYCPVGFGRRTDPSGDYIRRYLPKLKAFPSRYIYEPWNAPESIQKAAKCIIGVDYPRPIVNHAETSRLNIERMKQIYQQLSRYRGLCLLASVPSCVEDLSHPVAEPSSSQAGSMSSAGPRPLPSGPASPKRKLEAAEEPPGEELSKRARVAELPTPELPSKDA
Experiment: Modulation activity at CRY2/PER2 in human U2OS cells harboring per2-dLuc assessed as activation of per2 activity measured every 100 mins for 5 days by luciferase reporter gene assay
Catalogue of compounds with associated EC50
metric: EC50 (nM)

{"compound": "CC1(C)CCCN(CC(O)Cn2c3ccc(F)cc3c3cc(F)ccc32)C1=O (stereo not given)", "system": "CRY2/PER2 (Homo sapiens, UniProt O15055+Q49AN0)", "unit_label": "nM", "experimental_value": 463}
{"compound": "CC(C)N1CCCN(CC(O)Cn2c3ccc(F)cc3c3cc(F)ccc32)C1=O (stereo not given)", "system": "CRY2/PER2 (Homo sapiens, UniProt O15055+Q49AN0)", "unit_label": "nM", "experimental_value": 620}
{"compound": "COC1CCN(CC(O)Cn2c3ccc(F)cc3c3cc(F)ccc32)C1=O (stereo not given)", "system": "CRY2/PER2 (Homo sapiens, UniProt O15055+Q49AN0)", "unit_label": "nM", "experimental_value": 855}
{"compound": "CS(=O)(=O)N(Cc1ccco1)CC(O)Cn1c2ccccc2c2ccccc21 (stereo not given)", "system": "CRY2/PER2 (Homo sapiens, UniProt O15055+Q49AN0)", "unit_label": "nM", "experimental_value": 870}
{"compound": "O=C1CCCN1CC(O)Cn1c2ccc(F)cc2c2cc(F)ccc21 (stereo not given)", "system": "CRY2/PER2 (Homo sapiens, UniProt O15055+Q49AN0)", "unit_label": "nM", "experimental_value": 625}
